# experiment: Solubility in water
# Assay type: physicochemical
# settings: thermodynamic from solid; HCl salt solid dissolved in water
endpoint.label: solubility

Q: Give the measured solubility of CC(C)N(CCc1c[nH]c2cccc(OC(=O)CCCC(=O)O)c12)C(C)C [Example 6, N,N diisopropyltryptamine-4-glutarate] .
Result: ≤ 50 mg/mL

Sourced from patent US20250051278A1
